Numbers sourced from patent US20180230200A1.

- ASSAY SYSTEM: gH of HCMV strain TR (human cytomegalovirus strain TR)
- PROCEDURE TEXT: cell-based or functional assay
MEASURED QUANTITY: IC50, neutralization of TR infection of HUVEC (µg/mL)

BINDER	UNIT DESCRIPTOR	EXPERIMENTAL RESULT
21E9 (antibody, V domains shown, also called NAb 21E9) VH: QIQLVQSGPELKKPGETVKISCKASGYTFTIYGMNWVKQAPGKGLKWMGWINTYTGEPTYADDFRGRFAFSLETSASTAYLQINNLKNEDTATYFCARKGYYGSSGYFDYWGQGTTLTVSS VL: SIVMTQTPKFLLVSAGDRVTITCKASQSVSNDVSWYQQKPGQSPKLLIYYASNRYTGVPDRFTGSGYGTDFTFTISTVQAEDLAVYFCQQDYSSPWTFGGGTKLEIK	µg/mL	2.92
2-80 (antibody, V domains shown, also called NAb 2-80) VH: QIQLVQSGPELKKPGETVKISCKASGYTFTNFGMNWVKQAPGKGLKWMGWINTYTGEPTYADDFKGRFAFSLETSASTASLQINNLKNEDTATYFCARRGDGLYSMDYWGQGTSVTVSS VL: DIVLTQSPASLAVSLGQRATISCRASESIDSYGNSFMYWYQQKPGQPPKLLIYRASNLESGIPARFSGSGSRTDFTLTINPVEADDVATYYCQQSNEDPLTFGAGTKLELK	µg/mL	2.54
62-11 (antibody, V domains shown, also called NAb 62-11) VH: QVQLQQPGAELVRPGASVKLSCKASGYTFTSYWMNWVKQRPGQGLEWIGMIDPSDSETHYNQMFKDKATLTVDKSSSTAYMQLSSLTSEDSAVYYCSNGYSSFAYWGQGTLVTVSV VL: DVQMTQTTSSLSASLGDRVTISCSASQGISNYLNWYQQKPDGTVKLLIYDTSSLHSGVPSRFSGSGSGTDYSLTISNLEPEDIATYYCQQYSKLPYTFGGGTKLEIK	µg/mL	0.83
